Target under test: BCL-2 recombinant protein (Homo sapiens)
Run description: Cell free Bcl-2:Bak affinity assay (Bcl-2 Bak), HTRF competition of FAM-Bak peptide
Run parameters: 10-concentration IC50 mode, 4 nM BCL-2 recombinant protein, 100 nM FAM-Bak, read-out: potency (IC50)
pIC50: −log10 of the molar value.
Here the recorded pIC50 is given for each entry.

Compound	Measure name	Data value
Cc1cc(C(=O)NS(=O)(=O)c2ccc(N3CCN(CC4=C(c5ccc(Cl)cc5)CC(C)(C)CC4)CC3)cc2Oc2cnc3[nH]ccc3c2)cc([N+](=O)[O-])c1 [Example 79]	pIC50	7.00 to 8.00
Cn1cc(-c2nc(C(=O)NS(=O)(=O)c3ccc(N4CCN(CC5=C(c6ccc(Cl)cc6)CC(C)(C)CC5)CC4)cc3Oc3cnc4[nH]ccc4c3)ccc2F)cn1 [Example 63]	pIC50	7.00 to 8.00
Cc1nc(C(=O)NS(=O)(=O)c2ccc(N3CCN(CC4=C(c5ccc(Cl)cc5)CC(C)(C)CC4)CC3)cc2Oc2cnc3[nH]ccc3c2)ccc1Cl [Example 73]	pIC50	7.00 to 8.00
CC1(C)CCC(CN2CCN(c3ccc(S(=O)(=O)NC(=O)c4ccc(COc5ccc(Cl)cc5)c(F)c4)c(Oc4cnc5[nH]ccc5c4)c3)CC2)=C(c2ccc(Cl)cc2)C1 [Example 83]	pIC50	7.00 to 8.00
CC1(C)CCC(CN2CCN(c3ccc(S(=O)(=O)NC(=O)c4ccc(CNC5CCOCC5)c([N+](=O)[O-])c4)c(Oc4cnc5[nH]ccc5c4)c3)CC2)=C(c2ccc(Cl)cc2)C1 [Example 96]	pIC50	7.00 to 8.00
Cc1cc([N+](=O)[O-])cc(C(=O)NS(=O)(=O)c2ccc(N3CCN(CC4=C(c5ccc(Cl)cc5)CC(C)(C)CC4)CC3)cc2Oc2cnc3[nH]ccc3c2)n1 [Example 66]	pIC50	7.00 to 8.00

BCL-2 recombinant protein (Homo sapiens) / pIC50 / CCOc1c([N+](=O)[O-])cc(C(=O)NS(=O)(=O)c2ccc(N3CCN(CC4=C(c5ccc(Cl)cc5)CC(C)(C)CC4)CC3)cc2Oc2cnc3[nH]ccc3c2)c(Cl)c1C [Example 102] : value? 6.00 to 7.00

Again, but for Cc1c(Cl)c(C(=O)NS(=O)(=O)c2ccc(N3CCN(CC4=C(c5ccc(Cl)cc5)CC(C)(C)CC4)CC3)cc2Oc2cnc3[nH]ccc3c2)cc([N+](=O)[O-])c1OCC1CCOCC1 [Example 81] > 8.00

Again, but for COCc1ccc(C(=O)NS(=O)(=O)c2ccc(N3CCN(CC4=C(c5ccc(Cl)cc5)CC(C)(C)CC4)CC3)cc2Oc2cnc3[nH]ccc3c2)cc1[N+](=O)[O-] [Example 87] 7.00 to 8.00

Again, but for CC1(C)CCC(CN2CCN(c3ccc(S(=O)(=O)NC(=O)c4ccc5c(c4)CCCO5)c(Oc4cnc5[nH]ccc5c4)c3)CC2)=C(c2ccc(Cl)cc2)C1 [Example 74] 6.00 to 7.00

###

Target under test: BCL-2 recombinant protein (Homo sapiens, UniProt P10415)
Sequence (P10415 whole entry): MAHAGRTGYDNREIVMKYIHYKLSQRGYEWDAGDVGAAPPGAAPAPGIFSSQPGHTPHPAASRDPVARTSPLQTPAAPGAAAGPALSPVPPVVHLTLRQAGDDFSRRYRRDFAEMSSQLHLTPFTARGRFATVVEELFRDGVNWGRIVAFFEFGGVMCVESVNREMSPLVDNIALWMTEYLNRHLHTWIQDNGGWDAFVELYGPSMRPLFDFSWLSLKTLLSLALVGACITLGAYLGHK
Run description: Cell free Bcl-2:Bak affinity assay (Bcl-2 Bak), HTRF competition of FAM-Bak peptide
Run parameters: 10-concentration IC50 mode, 4 nM BCL-2 recombinant protein, 100 nM FAM-Bak, read-out: potency (IC50)
Measure name: IC50

Below, each entry is followed by its recorded IC50 result.
> print(dat)
                           structure.smiles      data.value
1  CC1(C)CCC(CN2CCN(c3ccc(S(=O)(=O)NC(=O)c4ccc([N+](=O)[O-])c(COc5ccc(Cl)cc5)c4)cc3)CC2)=C(c2ccc(Cl)cc2)C1    10 to 100 nM
2  CC1(C)CCC(CN2CCN(c3ccc(S(=O)(=O)NC(=O)c4ccc(Cl)c(C(F)(F)F)n4)c(Oc4cnc5[nH]ccc5c4)c3)CC2)=C(c2ccc(Cl)cc2)C1  100 to 1000 nM

Switching to the query record.
BCL-2 recombinant protein (Homo sapiens, UniProt P10415) / IC50 / CC1(C)CCC(CN2CCN(c3ccc(S(=O)(=O)NC(=O)c4ccc(NCC5CCOCC5)c([N+](=O)[O-])c4)c(Oc4cnc5[nH]ccc5c4)c3)CC2)=C(c2ccc(Cl)cc2)C1 : value? < 10 nM

###

Target under test: BCL-2 recombinant protein (Homo sapiens)
Run description: Cell free Bcl-2:Bak affinity assay (Bcl-2 Bak), HTRF competition of FAM-Bak peptide
Run parameters: 10-concentration IC50 mode, 4 nM BCL-2 recombinant protein, 100 nM FAM-Bak, read-out: potency (IC50)
Here the recorded IC50 is given for each entry.

Below, each entry is followed by its recorded IC50 result.
Compound	IC50
CC1(C)CCC(CN2CCN(c3ccc(S(=O)(=O)NC(=O)c4ccc(F)c(Br)n4)c(Oc4cnc5[nH]ccc5c4)c3)CC2)=C(c2ccc(Cl)cc2)C1	10 to 100 nM
CC1(C)CCC(CN2CCN(c3ccc(S(=O)(=O)NC(=O)c4ccc([N+](=O)[O-])c(Cl)n4)c(Oc4cnc5[nH]ccc5c4)c3)CC2)=C(c2ccc(Cl)cc2)C1	10 to 100 nM
CC1(C)CCC(CN2CCN(c3ccc(S(=O)(=O)NC(=O)c4cnc5sccc5c4)c(Oc4cnc5[nH]ccc5c4)c3)CC2)=C(c2ccc(Cl)cc2)C1	100 to 1000 nM
Cc1cc(S(C)(=O)=O)cc(C(=O)NS(=O)(=O)c2ccc(N3CCN(CC4=C(c5ccc(Cl)cc5)CC(C)(C)CC4)CC3)cc2Oc2cnc3[nH]ccc3c2)n1	> 1000 nM
COc1c([N+](=O)[O-])cc(C(=O)NS(=O)(=O)c2ccc(N3CCN(CC4=C(c5ccc(Cl)cc5)CC(C)(C)CC4)CC3)cc2Oc2cnc3[nH]ccc3c2)c(Cl)c1C	10 to 100 nM

BCL-2 recombinant protein (Homo sapiens) / IC50 / Cc1cn(C)nc1C(=O)NS(=O)(=O)c1ccc(N2CCN(CC3=C(c4ccc(Cl)cc4)CC(C)(C)CC3)CC2)cc1Oc1cnc2[nH]ccc2c1 : value? 10 to 100 nM

Again, but for CC1(C)CCC(CN2CCN(c3ccc(S(=O)(=O)NC(=O)c4ccc([N+](=O)[O-])c(COc5ccc(Cl)cc5)c4)c(Oc4cnc5[nH]ccc5c4)c3)CC2)=C(c2ccc(Cl)cc2)C1 100 to 1000 nM

Again, but for Cc1c(Cl)c(C(=O)NS(=O)(=O)c2ccc(N3CCN(CC4=C(c5ccc(Cl)cc5)CC(C)(C)CC4)CC3)cc2Oc2cnc3[nH]ccc3c2)cc([N+](=O)[O-])c1OCC1CCCO1 (stereo not drawn) < 10 nM

Again, but for CC1(C)CCC(CN2CCN(c3ccc(S(=O)(=O)NC(=O)c4ccc(COc5ccc(Cl)cc5)c([N+](=O)[O-])c4)c(Oc4cnc5[nH]ccc5c4)c3)CC2)=C(c2ccc(Cl)cc2)C1 < 10 nM

Again, but for Cc1cc([N+](=O)[O-])cc(C(=O)NS(=O)(=O)c2ccc(C3=CCN(CC4=C(c5ccc(Cl)cc5)CC(C)(C)CC4)CC3)cc2F)n1 < 10 nM

###

Target under test: BCL-2 recombinant protein (Homo sapiens, UniProt P10415)
Run description: Cell free Bcl-2:Bak affinity assay (Bcl-2 Bak), HTRF competition of FAM-Bak peptide
Assay type: binding
Run parameters: 1 μM compound, 4 nM BCL-2 recombinant protein, 100 nM FAM-Bak, read-out: potency (% inhibition at 1 μM)
Here the recorded inhibition at 1 µM is given for each entry.

> print(dat)
                                   molecule        measure.name  data.value
1  CC1(C)CCC(CN2CCN(c3ccc(S(=O)(=O)NC(=O)c4cc(C5CC5)on4)cc3)CC2)=C(c2ccc(Cl)cc2)C1 [Example 12]  inhibition at 1 µM       < 50%
2  Cn1ccc(-c2nc(C(=O)NS(=O)(=O)c3ccc(N4CCN(CC5=C(c6ccc(Cl)cc6)CC(C)(C)CC5)CC4)cc3)ccc2F)cc1=O [Example 56]  inhibition at 1 µM   50 to 90%
3  Cc1c(Cl)c(C(=O)NS(=O)(=O)c2ccc(N3CCN(CC4=C(c5ccc(Cl)cc5)CC(C)(C)CC4)CC3)cc2)cc([N+](=O)[O-])c1NCC1CCOCC1 [Example 42]  inhibition at 1 µM       > 90%

Name the reported inhibition at 1 µM value associated with the molecule COc1ncc(-c2nc(C(=O)NS(=O)(=O)c3ccc(N4CCN(CC5=C(c6ccc(Cl)cc6)CC(C)(C)CC5)CC4)cc3)ccc2F)cn1 [Example 57] 50 to 90%

Again, but for CNc1c([N+](=O)[O-])cc(C(=O)NS(=O)(=O)c2ccc(N3CCN(CC4=C(c5ccc(Cl)cc5)CC(C)(C)CC4)CC3)cc2)c(Cl)c1C [Example 54] 50 to 90%

Again, but for CC1(C)CCC(CN2CCN(c3ccc(S(=O)(=O)NC(=O)c4ccc(F)c(-c5cn[nH]c5)n4)cc3)CC2)=C(c2ccc(Cl)cc2)C1 [Example 59] 50 to 90%

Again, but for CN1C(=O)CCc2cc(C(=O)NS(=O)(=O)c3ccc(N4CCN(CC5=C(c6ccc(Cl)cc6)CC(C)(C)CC5)CC4)cc3)ccc21 [Example 10] 50 to 90%

Again, but for Cn1ncc2cc(-c3nc(C(=O)NS(=O)(=O)c4ccc(N5CCN(CC6=C(c7ccc(Cl)cc7)CC(C)(C)CC6)CC5)cc4)ccc3F)ccc21 [Example 50] 50 to 90%

Taken from patent US11622970B2.
